# method description: NCI Yeast Anticancer Drug Screen. Data for the mec2-1 strain (AID 157)
# conditions used: S. cerevisiae mec2-1 strain, at 50.0 µM, hits give high values
This is part of a sample that, as a whole, favours compounds with a hit. Of some 79,000 tested, about 15% had one in any assay.
For each of the molecules below, state its growth inhibition.
Numbers only, in %.

molecule="COC(=O)C(C(=O)c1ccccc1)C(C(=O)C(=O)Nc1ccc(OC)cc1OC)C(=O)C(=O)c1ccc(C)cc1 (stereo not drawn)" quantity="growth inhibition" recorded_result=10.8
molecule=N#C/C(=N\Nc1ccc(F)cc1)C(=O)C1CC1 quantity="growth inhibition" recorded_result=9.05
molecule="CC1CCC(C(C)C)C(OC2(c3ccccc3)OC(=O)c3ccccc32)C1 (stereo not drawn)" quantity="growth inhibition" recorded_result=-5.7
molecule="OCC1OC(n2cc[nH]c2=S)C(O)C1O (stereo not drawn)" quantity="growth inhibition" recorded_result=7.6
molecule="CC1=C(c2ccccc2)C(c2ccccc2)c2ccccc21 (stereo not drawn)" quantity="growth inhibition" recorded_result=26.7

// for each molecule in input: emit growth inhibition
1. O=C(O)C(Br)Cc1cccc([N+](=O)[O-])c1 (stereo not drawn)
2. COc1cc(/C=C/C=C2\CC(C)C/C(=C\C=C\c3ccc(O)c(OC)c3)C2=O)ccc1O (stereo not drawn)
3. O=C(O)C1=NN(c2cc(Cl)c(S(=O)(=O)O)cc2Cl)C(=O)C1
4. CN1C(c2ccco2)NC(=O)C12CCN(Cc1ccccc1)CC2 (stereo not drawn)
5. CC/C=C(\C)C(C#N)(CC)C(=O)OCC (stereo not drawn)

[-9.35, 8.3, -45.1, 7.25, -12.7]

// for each molecule in input: emit growth inhibition
1. C(=N\c1oc(-c2ccccc2)nc1SCc1ccccc1)/c1ccccc1
2. COc1ccc2c(c1OC(C)=O)C1=CC(OC(C)=O)=CCC13CCN(C)C3C2 (stereo not drawn)
3. COc1ccc(N=Nc2ccc(OC)cc2C)c(C)c1

[11.2, -0.15, -2.3]

// for each molecule in input: emit growth inhibition
1. CCCCCCCC(=O)OCC1OC(n2cc(F)c(=O)[nH]c2=O)C(NC(=O)OCc2ccccc2)C(O)C1O (stereo not drawn)
2. Cc1ccc(C(=O)NC(N)=O)cc1
3. CC(=O)OCC1OC(n2nc(C#N)c(C#N)n2)C(OC(C)=O)C1OC(C)=O (stereo not drawn)
4. CCCCCCCCCCCC[N+]12CC[N+](C)(CC1)CC2
5. O=C(/C=C/c1ccc(Cl)cc1)c1ccncc1
6. CCOC(=O)c1[nH]c(CC(=O)O)c(C(=O)OCC)c1C
7. Cc1cc(S(=O)(=O)Nc2n[nH]c(Nc3ccc4ccccc4c3)n2)c(S)cc1Cl
8. CCc1nc2c([nH]1)c(=O)n(C)c(=O)n2C

1: -13.8; 2: -6.25; 3: -3; 4: -24.4; 5: 0; 6: 3; 7: 5.85; 8: -4.6

// for each molecule in input: emit growth inhibition
1. C=CCNc1nc2c(s1)CCc1cc(OC)c(OC)cc1-2
2. Cc1cc2nnn(-c3ncccc3[N+](=O)[O-])c2cc1C
3. CN(C)c1ccc(/C=C/c2ccnc3ccc(Cl)cc23)cc1
4. CC(Nc1ncccn1)Nc1ncccn1

1. 10.6
2. 5.85
3. 22.5
4. 1.8
